Assay Explanation: collision cross section of modified peptide (TIMS, N2, iRT-aligned); higher = larger / more extended gas-phase ion
Test Context: charge state: 2; modification: Hydroxyproline
Outcome Measure: collision cross section (Å²)
Answers are plain numbers, in Å².

Solved cases (10 shown):
Polymer Sequence	collision cross section, Å²
TVQGPPGEPGR [_TVQGPPGEP(Hydroxyproline)GR_]	345.67
GLPGEPGPR [_GLPGEP(Hydroxyproline)GPR_]	312.79
GITGKPGPK [_GITGKP(Hydroxyproline)GPK_]	315.51
GFPGIQGRK [_GFP(Hydroxyproline)GIQGRK_]	339.07
PGSPGPPGSPGPR [_PGSPGPPGSP(Hydroxyproline)GPR_]	352.39
GPPGAKGNK [_GPP(Hydroxyproline)GAKGNK_]	311.98
GGPGAPGAPGPK [_GGPGAP(Hydroxyproline)GAPGPK_]	326.77
GLPGLAGDHGEFGEK [_GLP(Hydroxyproline)GLAGDHGEFGEK_]	432.14
GGRGTPGK [_GGRGTP(Hydroxyproline)GK_]	291.37
GNPGVGTQGPR [_GNP(Hydroxyproline)GVGTQGPR_]	327.91

With those in mind, consider the next sequence.
Prompt: Entry GAPGPQGPPGPPGK [_GAPGPQGPPGPP(Hydroxyproline)GK_] : reported collision cross section = ?
Response: 359.87

###

Assign collision cross section to each entry below.
Assay Explanation: collision cross section of modified peptide (TIMS, N2, iRT-aligned); higher = larger / more extended gas-phase ion
Test Context: charge state: 3; modification: Butyryl
Give bare numbers, in Å².

These solved cases illustrate the format of a correct answer.
Polymer Sequence	Value Unit	collision cross section
LEEVTGKLQVAR [_LEEVTGK(Butyryl)LQVAR_]	Å²	467.68
VNVEAPDVNLEGLGGKLK [_VNVEAPDVNLEGLGGK(Butyryl)LK_]	Å²	548.3

Below are some sequences; for each one, tell me its collision cross section.
1. ANEKTESSSAQQVAVSR [_ANEK(Butyryl)TESSSAQQVAVSR_]
2. SPDEAYAIAKK [_SPDEAYAIAK(Butyryl)K_]
3. IHVQSSSDSSDEPAEKR [_IHVQSSSDSSDEPAEK(Butyryl)R_]
4. TQDQISNIKYHEEFEK [_TQDQISNIK(Butyryl)YHEEFEK_]

Response:
1: 534.65; 2: 446.36; 3: 504.47; 4: 559.77

###

Assay Explanation: collision cross section of modified peptide (TIMS, N2, iRT-aligned); higher = larger / more extended gas-phase ion
Test Context: charge state: 2; modification: Hydroxyproline
Outcome Measure: collision cross section (Å²)
Give bare numbers, in Å².

Worked examples follow.
Substance	collision cross section / Å²
GLPGEKGER [_GLP(Hydroxyproline)GEKGER_]	345.98
IHPEGPPLK [_IHP(Hydroxyproline)EGPPLK_]	331.8
GDPGLIGPK [_GDP(Hydroxyproline)GLIGPK_]	312.86
VPGALAAAKAAK [_VP(Hydroxyproline)GALAAAKAAK_]	368.8
GQQGEPGPK [_GQQGEP(Hydroxyproline)GPK_]	313.43
VGYPGPSGPLGAR [_VGYP(Hydroxyproline)GPSGPLGAR_]	356.91
GSRGFPGEK [_GSRGFP(Hydroxyproline)GEK_]	330.58
GPKGQQGEPGPK [_GPKGQQGEP(Hydroxyproline)GPK_]	357.43
PGNSGIR [_P(Hydroxyproline)GNSGIR_]	280.46
GGQGPPGPQGPIGYPGPR [_GGQGPPGPQGPIGYP(Hydroxyproline)GPR_]	420.55

Prompt: Using the record for TGPPGSTGSR [_TGPP(Hydroxyproline)GSTGSR_] , report its collision cross section.
Response: 312.97

The measured values listed here are drawn from the supplement of paper PMC10598134.
